Test system: MCF7 complex spheroid growth, % test/control
Assay: Anticancer human tumor MCF7 cell line growth inhibition [Asc];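 also: spheroids exposed to compounds for 7 days; 100% = DMSO vehicle control wells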
Settings: second compound 0.1 µM; first compound 0.00316 µM; active compounds read low
Catalogue of viability, T/C values
Give the quantity in %, number only.

{"columns": ["Compound", "viability, T/C [%]"],
 "data": [
  ["Cn1ncnc1[C@H]1c2n[nH]c(=O)c3cc(F)cc(c23)N[C@@H]1c1ccc(F)cc1 + Cc1c(S(C)(=O)=O)c(-c2cc(F)cc(N3CCN(c4ccc(NS(=O)(=O)c5ccc(NC(CCN6CCC(C(=O)OCCCP(=O)(O)O)CC6)CSc6ccccc6)c(S(=O)(=O)C(F)(F)F)c5)cc4)CC3)c2)c(-c2ccc(Cl)cc2)n1C(C)C", 78.9],
  ["CNC(C)C(=O)NC1CN(S(=O)(=O)c2cccc(S(=O)(=O)N3CCC4CCC(C(=O)NC(c5ccccc5)c5ccccc5)N4C(=O)C(NC(=O)C(C)NC)C3)c2)CCC2CCC(C(=O)NC(c3ccccc3)c3ccccc3)N2C1=O (stereo not drawn) + Cc1c(S(C)(=O)=O)c(-c2cc(F)cc(N3CCN(c4ccc(NS(=O)(=O)c5ccc(NC(CCN6CCC(C(=O)OCCCP(=O)(O)O)CC6)CSc6ccccc6)c(S(=O)(=O)C(F)(F)F)c5)cc4)CC3)c2)c(-c2ccc(Cl)cc2)n1C(C)C", 96.3]
]}

Turning to the following compound.
INPUT: Given the compound O=C(c1ccc(F)c(F)c1Nc1ccc(I)cc1F)N1CC(O)([C@@H]2CCCCN2)C1 + CNC(C)C(=O)NC1CN(S(=O)(=O)c2cccc(S(=O)(=O)N3CCC4CCC(C(=O)NC(c5ccccc5)c5ccccc5)N4C(=O)C(NC(=O)C(C)NC)C3)c2)CCC2CCC(C(=O)NC(c3ccccc3)c3ccccc3)N2C1=O , what is its reported viability, T/C?
OUTPUT: 13.2
